# assayProtocol: Critical micelle concentration in aqueous potassium hydroxide assessed as breakpoint of conductivity by conductimeter
# Assay type: physicochemical
# settings: buffer
assayReadout: CMC

C[N+](C)(CCCCCCCCCC[N+](C)(C)CC(=O)NCCC(F)(F)C(F)(F)C(F)(F)C(F)(F)C(F)(F)C(F)(F)F)CC(=O)NCCC(F)(F)C(F)(F)C(F)(F)C(F)(F)C(F)(F)C(F)(F)F.[Br-].[Br-]
0.296 mM

Lookup: Dear colleague, please send me the reported CMC for C[N+](C)(CCC[N+](C)(C)CC(=O)NCCC(F)(F)C(F)(F)C(F)(F)C(F)(F)C(F)(F)C(F)(F)F)CC(=O)NCCC(F)(F)C(F)(F)C(F)(F)C(F)(F)C(F)(F)C(F)(F)F.[Br-].[Br-] when you can.
Found: 0.546 mM

Lookup: Dear colleague, please send me the reported CMC for C[N+](C)(CC[N+](C)(C)CC(=O)NCCC(F)(F)C(F)(F)C(F)(F)C(F)(F)C(F)(F)C(F)(F)F)CC(=O)NCCC(F)(F)C(F)(F)C(F)(F)C(F)(F)C(F)(F)C(F)(F)F.[Br-].[Br-] when you can.
Found: 0.591 mM

Lookup: Dear colleague, please send me the reported CMC for C[N+](C)(CCCC[N+](C)(C)CCC(F)(F)C(F)(F)C(F)(F)C(F)(F)C(F)(F)C(F)(F)F)CCC(F)(F)C(F)(F)C(F)(F)C(F)(F)C(F)(F)C(F)(F)F.[Br-].[Br-] when you can.
Found: 2.39 mM

----------
# assayProtocol: Critical micelle concentration in aqueous potassium hydroxide assessed as breakpoint of conductivity by conductimeter
# Assay type: physicochemical
# settings: buffer
Below: a set of entries, each annotated with reported CMC.
Could you give me the number in mM? Just the number is fine.

Example entries begin here.
C[N+](C)(CCSSCC[N+](C)(C)CC(=O)NCCC(F)(F)C(F)(F)C(F)(F)C(F)(F)C(F)(F)C(F)(F)F)CC(=O)NCCC(F)(F)C(F)(F)C(F)(F)C(F)(F)C(F)(F)C(F)(F)F.[Br-].[Br-]
0.451
C[N+](C)(CCCCCC[N+](C)(C)CC(=O)NCCC(F)(F)C(F)(F)C(F)(F)C(F)(F)C(F)(F)C(F)(F)F)CC(=O)NCCC(F)(F)C(F)(F)C(F)(F)C(F)(F)C(F)(F)C(F)(F)F.[Br-].[Br-]
0.588
O=C(C[N+]12CC[N+](CC(=O)NCCC(F)(F)C(F)(F)C(F)(F)C(F)(F)C(F)(F)C(F)(F)F)(CC1)CC2)NCCC(F)(F)C(F)(F)C(F)(F)C(F)(F)C(F)(F)C(F)(F)F.[Br-].[Br-]
0.466
C[N+](C)(CCCC[N+](C)(C)CCNC(=O)NCCC(F)(F)C(F)(F)C(F)(F)C(F)(F)C(F)(F)C(F)(F)F)CCNC(=O)NCCC(F)(F)C(F)(F)C(F)(F)C(F)(F)C(F)(F)C(F)(F)F.[Br-].[Br-]
0.523

Please find the next compound below.
Lookup: Dear colleague, please send me the reported CMC for C[N+](C)(CC(=O)NCCC(F)(F)C(F)(F)C(F)(F)C(F)(F)C(F)(F)C(F)(F)F)CC(O)C[N+](C)(C)CC(=O)NCCC(F)(F)C(F)(F)C(F)(F)C(F)(F)C(F)(F)C(F)(F)F.[Br-].[Br-] when you can.
Found: 0.541

----------
# assayProtocol: Critical micelle concentration in aqueous potassium hydroxide assessed as breakpoint of conductivity by conductimeter
# Assay type: physicochemical
# settings: buffer
Below: a set of entries, each annotated with reported CMC.
Could you give me the number in mM? Just the number is fine.

C[N+](C)(CCCC[N+](C)(C)CC(=O)NCCC(F)(F)C(F)(F)C(F)(F)C(F)(F)C(F)(F)C(F)(F)F)CC(=O)NCCC(F)(F)C(F)(F)C(F)(F)C(F)(F)C(F)(F)C(F)(F)F.[Br-].[Br-]
0.758
C[N+](C)(CCCC[N+](C)(C)CCNC(=O)CCC(F)(F)C(F)(F)C(F)(F)C(F)(F)C(F)(F)C(F)(F)F)CCNC(=O)CCC(F)(F)C(F)(F)C(F)(F)C(F)(F)C(F)(F)C(F)(F)F.[Br-].[Br-]
0.547
C[N+](C)(C/C=C/C[N+](C)(C)CC(=O)NCCC(F)(F)C(F)(F)C(F)(F)C(F)(F)C(F)(F)C(F)(F)F)CC(=O)NCCC(F)(F)C(F)(F)C(F)(F)C(F)(F)C(F)(F)C(F)(F)F.[Br-].[Br-]
0.559

Lookup: Dear colleague, please send me the reported CMC for C[N+](C)(CCCCCCCCCCCC[N+](C)(C)CC(=O)NCCC(F)(F)C(F)(F)C(F)(F)C(F)(F)C(F)(F)C(F)(F)F)CC(=O)NCCC(F)(F)C(F)(F)C(F)(F)C(F)(F)C(F)(F)C(F)(F)F.[Br-].[Br-] when you can.
Found: 0.269

Lookup: Dear colleague, please send me the reported CMC for C[N+](C)(CCCC[N+](C)(C)CCOC(=O)NCCC(F)(F)C(F)(F)C(F)(F)C(F)(F)C(F)(F)C(F)(F)F)CCOC(=O)NCCC(F)(F)C(F)(F)C(F)(F)C(F)(F)C(F)(F)C(F)(F)F.[Br-].[Br-] when you can.
Found: 0.54

Lookup: Dear colleague, please send me the reported CMC for C[N+](C)(CCCCCCCC[N+](C)(C)CC(=O)NCCC(F)(F)C(F)(F)C(F)(F)C(F)(F)C(F)(F)C(F)(F)F)CC(=O)NCCC(F)(F)C(F)(F)C(F)(F)C(F)(F)C(F)(F)C(F)(F)F.[Br-].[Br-] when you can.
Found: 0.361
